This section presents molecules with their documented Ki values.
Target: μ-receptor (Homo sapiens (Human))
Assay: Receptor binding, competitive displacement of [3H]DAMGO
Conditions: 0.25 nM [3H]DAMGO, CHO cell membrane protein, 60 min at 25° C.
Experimental: The Ki (binding affinity) for μ-receptor was determined with a previously described method using a competitive displacement assay (Neumeyer et al., J. Med. Chem., v. 46, p. 5162-5170, 2003). […] Nonspecific binding was measured by inclusion of 10 μM naloxone. […] The filters were subsequently washed three times with 3 mL of cold 50 mM Tris-HCl, pH 7.5, and were counted in 2 mL Ecoscint A scintillation fluid. […] IC50 values will be calculated by least squares fit to a logarithm-probit analysis. […]
Structures can show the parent of a compound that is named as a salt.

MOLECULE	TESTED ON	Ki
COC1(c2cccc(C(N)=O)c2)C2CCCC1CN(CCC1CC1)C2.Cl (stereo not shown) [Compound 138, hydrochloride]	μ-receptor (Homo sapiens (Human))	< 1 nM
COC1(c2ccnc(C(N)=O)c2)C2CCCC1CN([C@H]1CC[C@@H]1c1ccccc1)C2 (stereo partly shown) [Compound 117, hydrochloride]	μ-receptor (Homo sapiens (Human))	1 to 5 nM
COC1(c2cccc(C(N)=O)c2)C2CCCC1CN(C1COC1)C2 (stereo not shown)	μ-receptor (Homo sapiens (Human))	1 to 5 nM
COC1(c2ccnc(C(N)=O)c2)C2CCCC1CN(CCN1CCOC1=O)C2 (stereo not shown) [Compound 80, hydrochloride]	μ-receptor (Homo sapiens (Human))	> 5 nM
COC1(c2cccc(C(N)=O)c2)C2CCCC1CN(C[C@@H]1CCOC1)C2.Cl (single isomer, unassigned) [Compound 143, hydrochloride]	μ-receptor (Homo sapiens (Human))	< 1 nM
COC1(c2cccc(C(N)=O)c2)C2CCCC1CN(CC1CC1)C2.Cl (stereo not shown) [Compound 22, hydrochloride]	μ-receptor (Homo sapiens (Human))	< 1 nM
COC1(c2cccc(C(N)=O)c2)C2CCCC1CN(CC1CCOCC1)C2.Cl (stereo not shown) [Compound 122, hydrochloride]	μ-receptor (Homo sapiens (Human))	1 to 5 nM
COC1(c2ccnc(C(N)=O)c2)C2CCCC1CN(C1(C)CC1)C2 (stereo not shown) [Compound 4, hydrochloride]	μ-receptor (Homo sapiens (Human))	> 5 nM
COC1(c2cccc(C(N)=O)c2)C2CCCC1CN(CCN1C(=O)CCC1=O)C2.Cl (stereo not shown) [Compound 65, hydrochloride]	μ-receptor (Homo sapiens (Human))	< 1 nM
COC1(c2ccnc(C(N)=O)c2)C2CCCC1CN(CCN1CCNC1=O)C2 (stereo not shown) [Compound 85, hydrochloride]	μ-receptor (Homo sapiens (Human))	1 to 5 nM
COC1(c2ccnc(C(N)=O)c2)C2CCCC1CN([C@H]1C[C@H](C)C1)C2 (stereo partly shown) [Compound 131, hydrochloride]	μ-receptor (Homo sapiens (Human))	1 to 5 nM
COC1(c2cccc(C(N)=O)c2)C2CCCC1CN(CCc1ccccc1)C2 (stereo not shown) [Compound 24, hydrochloride]	μ-receptor (Homo sapiens (Human))	< 1 nM
COC1(c2ccnc(C(N)=O)c2)C2CCCC1CN(CC1(O)Cc3ccccc3C1)C2 (stereo not shown) [Compound 73, hydrochloride]	μ-receptor (Homo sapiens (Human))	< 1 nM
COC1(c2ccnc(C(N)=O)c2)C2CCCC1CN(C1CN(C(C)=O)C1)C2 (stereo not shown) [Compound 84, hydrochloride]	μ-receptor (Homo sapiens (Human))	> 5 nM
COC1(c2ccnc(C(N)=O)c2)C2CCCC1CN(C1CC3CCC(C1)O3)C2 (stereo not shown) [Compound 10, hydrochloride]	μ-receptor (Homo sapiens (Human))	> 5 nM
COC1(c2cccc(C(N)=O)n2)C2CCCC1CN(C)C2 (stereo not shown) [Compound 33, hydrochloride]	μ-receptor (Homo sapiens (Human))	> 5 nM
COC1(c2ccnc(C(N)=O)c2F)C2CCCC1CN(C)C2 (stereo not shown) [Compound 53, hydrochloride]	μ-receptor (Homo sapiens (Human))	1 to 5 nM
CCN1CC2CCCC(C1)C2(OC)c1ccnc(C(N)=O)c1 (stereo not shown) [Compound 66, hydrochloride]	μ-receptor (Homo sapiens (Human))	1 to 5 nM
COC1(c2ccnc(C(N)=O)c2)C2CCCC1CN(C1CCOC1)C2 (stereo not shown) [Compound 74, hydrochloride]	μ-receptor (Homo sapiens (Human))	1 to 5 nM
COC1(c2ccc(C(N)=O)s2)C2CCCC1CN(C1CN(C(C)=O)C1)C2 (stereo not shown) [Compound 114, hydrochloride]	μ-receptor (Homo sapiens (Human))	> 5 nM
COC1(c2ccnc(C(N)=O)c2)C2CCCC1CN(Cc1n[nH]c3ccccc13)C2 (stereo not shown) [Compound 142, hydrochloride]	μ-receptor (Homo sapiens (Human))	< 1 nM
COC1(c2ccnc(C(N)=O)c2)C2CCCC1CN(CC1CCOCC1)C2.Cl (stereo not shown) [Compound 127, hydrochloride]	μ-receptor (Homo sapiens (Human))	1 to 5 nM
COC1(c2ccnc(C(N)=O)c2)C2CCCC1CN(C1CC(F)(F)C1)C2 (stereo not shown) [Compound 82, hydrochloride]	μ-receptor (Homo sapiens (Human))	1 to 5 nM
COC1(c2ccnc(C(N)=O)c2)C2CCCC1CN([C@H]1C[C@H]3C[C@H]3C1)C2 (stereo partly shown) [Compound 94, hydrochloride]	μ-receptor (Homo sapiens (Human))	< 1 nM
COC1(c2ccnc(C(N)=O)c2)C2CCCC1CN([C@H]1CCOC1)C2.Cl (stereo partly shown) [Compound 79, hydrochloride]	μ-receptor (Homo sapiens (Human))	1 to 5 nM

----------
target: human μ opioid receptor (Homo sapiens (Human)); test: Alternate functional activity ([35S]GTPγS binding) assay, SPA beads; type: biochemical; settings: alternate assay: [35S]GTPγS 0.020 nM, CHO cell membranes with WGA PVT SPA beads
Structures can show the parent of a compound that is named as a salt.
This section presents molecules with their documented EC50 values.

MOLECULE	TESTED ON	EC50
COC1(c2ccnc(C(N)=O)c2)C2CCCC1CN(C[C@H]1C[C@H]3CC[C@@H](C1)O3)C2 (some centres unmarked) [Compound 164]	human μ opioid receptor (Homo sapiens (Human))	10 to 75 nM
COC1(c2cccc(C(N)=O)c2)C2CCCC1CN(C[C@H]1C[C@@H]3C[C@@H]3C1)C2 (some centres unmarked) [Compound 152, hydrochloride]	human μ opioid receptor (Homo sapiens (Human))	< 10 nM
COC1(c2cccc(C(N)=O)c2)C2CCCC1CN(Cc1n[nH]c3cnccc13)C2 (centres unmarked) [Compound 191]	human μ opioid receptor (Homo sapiens (Human))	10 to 75 nM
CCOC1(c2cccc(C(N)=O)c2)C2CCCC1CNC2.Cl (centres unmarked) [Compound 160]	human μ opioid receptor (Homo sapiens (Human))	10 to 75 nM
COC1(c2cccc(C(N)=O)c2)C2CCCC1CN(C[C@H]1C[C@H]3CC[C@@H](C1)O3)C2 (some centres unmarked) [Compound 166]	human μ opioid receptor (Homo sapiens (Human))	< 10 nM
NC(=O)c1cccc(C2(OCCF)C3CCCC2CNC3)c1 (centres unmarked) [Compound 187]	human μ opioid receptor (Homo sapiens (Human))	10 to 75 nM
NC(=O)c1cccc(C2(OCC(F)(F)F)C3CCCC2CNC3)c1 (centres unmarked) [Compound 184]	human μ opioid receptor (Homo sapiens (Human))	10 to 75 nM
COC1(c2ccnc(C(N)=O)c2)C2CCCC1CN(C1(C)CCC1)C2 (centres unmarked) [Compound 201]	human μ opioid receptor (Homo sapiens (Human))	10 to 75 nM
COC1(c2cccc(C(N)=O)c2)C2CCCC1CN([C@@H](C)c1n[nH]c3cnccc13)C2 (some centres unmarked) [Compound 190]	human μ opioid receptor (Homo sapiens (Human))	< 10 nM
CCOC1(c2ccnc(C(N)=O)c2)C2CCCC1CNC2 (centres unmarked) [Compound 161]	human μ opioid receptor (Homo sapiens (Human))	10 to 75 nM
COC1(c2cc(C(N)=O)ccc2C)C2CCCC1CN(C)C2 (centres unmarked) [Compound 172]	human μ opioid receptor (Homo sapiens (Human))	> 75 nM
COC1(c2cccc(C(N)=O)c2)C2CCCC1CN(C1CCC(F)(F)CC1)C2 (centres unmarked) [Compound 196]	human μ opioid receptor (Homo sapiens (Human))	10 to 75 nM
CCOC1(c2cc(F)cc(C(N)=O)c2)C2CCCC1CNC2 (centres unmarked) [Compound 192]	human μ opioid receptor (Homo sapiens (Human))	10 to 75 nM
CCOC1(c2cc(Cl)cc(C(N)=O)c2)C2CCCC1CNC2 (centres unmarked) [Compound 185]	human μ opioid receptor (Homo sapiens (Human))	> 75 nM
COC1(c2cccc(C(N)=O)c2)C2CCCC1CN(C1CC3CCC(C1)O3)C2 (single isomer, unassigned) [Compound 16, hydrochloride]	human μ opioid receptor (Homo sapiens (Human))	< 10 nM
COC1(c2ccnc(C(N)=O)c2)C2CCCC1CN([C@H](C)c1cnn[nH]1)C2 (some centres unmarked) [Compound 206]	human μ opioid receptor (Homo sapiens (Human))	> 75 nM
CCOC1(c2cccc(C(N)=O)c2O)C2CCCC1CNC2 (centres unmarked) [Compound 207]	human μ opioid receptor (Homo sapiens (Human))	> 75 nM
COC1(c2cccc(C(N)=O)c2)C2CCCC1CN(C1CC3CCC(C1)O3)C2 (centres unmarked) [Compound 205]	human μ opioid receptor (Homo sapiens (Human))	< 10 nM
COC1(c2ccnc(C(N)=O)c2)C2CCCC1CN([C@H]1C[C@@H]3[C@H](C1)C3(F)F)C2 (some centres unmarked) [Compound 197]	human μ opioid receptor (Homo sapiens (Human))	< 10 nM
CCOC1(c2ccc(F)c(C(N)=O)c2)C2CCCC1CNC2 (centres unmarked) [Compound 183]	human μ opioid receptor (Homo sapiens (Human))	> 75 nM

Every entry's value here was drawn from patent US10604489B2.
